# method: Cannabinoid profile of crystalline product samples by HPLC-DAD-MS analysis (cannabinoid preservation)
# condition context: average of Samples R103A-C; sucrose, without rapid cooling process
Rule: Cannabinoid quantity, Avg R103A-C under 0.5 mg/g gives n, otherwise y.

molecule	group label
CCCc1cc2c(c(O)c1C(=O)O)C1C=C(C)CCC1C(C)(C)O2 (stereo not drawn) [THCV-A]	n

For the next question, use this molecule.
# input Does the reported Cannabinoid quantity, Avg R103A-C for CCCCCc1cc(O)c2c(c1)OC(C)(C)[C@@H]1CCC(C)=C[C@@H]21 [Δ9-THC, Δ-9-tetrahydrocannabinol, reference compound] fall at or above the 0.5 mg/g mark?
# output y

----------
# method: Cannabinoid profile of crystalline product samples by HPLC-DAD-MS analysis (cannabinoid preservation)
# condition context: crystalline product, sodium chloride, without rapid cooling process, from RB-Fat
measured endpoint: Cannabinoid quantity in Sample S103 (mg/g)
One number for each entry, in mg/g.

Guide cases for Cannabinoid quantity in Sample S103, answers given:
molecule	unit annotation	Cannabinoid quantity in Sample S103
C=C(C)[C@@H]1CCC(C)=C[C@H]1c1c(O)cc(CCCCC)cc1O [CBD, Cannabidiol, reference compound]	mg/g	0.22
CCCc1cc(O)c2c(c1)OC(C)(C)[C@@H]1CCC(C)=C[C@@H]21 [THCV, Tetrahydrocannabivarin]	mg/g	0.51
CCCCCc1cc(O)c(C/C=C(\C)CCC=C(C)C)c(O)c1 [CBG, Cannabigerol]	mg/g	0.58

State recorded Cannabinoid quantity in Sample S103 for all listed molecules.
1. CCCCCc1cc(O)c2c(c1)OC(C)(CCC=C(C)C)C=C2 (centres unmarked) [CBC, Cannabichromene]
2. CCCCCc1cc(O)c2c(c1)OC(C)(C)c1ccc(C)cc1-2 [CBN, Cannabinol]

# output
1. 0.94
2. 2.33

----------
# method: Cannabinoid profile of crystalline product samples by HPLC-DAD-MS analysis (cannabinoid preservation)
# condition context: crystalline product, sucrose, with rapid cooling process; stored for three months before being tested
Values of Cannabinoid quantity in Sample R104B strictly less than 1 mg/g map to Yes, and values of at least 1 mg/g map to No.

compound	group label
CCCc1cc(O)c2c(c1)OC(C)(C)[C@@H]1CCC(C)=C[C@@H]21 [THCV, Tetrahydrocannabivarin]	Yes

# input Answer whether the compound CCCCCc1cc(O)c2c(c1)OC(C)(CCC=C(C)C)C=C2 (stereo not shown) has Cannabinoid quantity in Sample R104B strictly less than 1 mg/g
# output No

# input Quick check: does CCCCCc1cc(O)c2c(c1)OC(C)(C)[C@@H]1CCC(C)=C[C@@H]21 [Δ9-THC, Δ-9-tetrahydrocannabinol, reference compound] have Cannabinoid quantity in Sample R104B under 1 mg/g?
# output No

# input Input CCCCCc1cc(O)c(C/C=C(\C)CCC=C(C)C)c(O)c1 ; condition: Cannabinoid quantity in Sample R104B strictly below 1 mg/g. Does it hold?
# output No

# input # TODO verify Cannabinoid quantity in Sample R104B < 1 mg/g strictly for this compound: CCCCCc1cc(O)c2c(c1)OC(C)(C)c1ccc(C)cc1-2
# output No

# input I wonder whether C=C(C)[C@@H]1CCC(C)=C[C@H]1c1c(O)cc(CCCCC)cc1O [CBD, Cannabidiol, reference compound] has Cannabinoid quantity in Sample R104B below 1 mg/g. Can you tell?
# output Yes

# input Find out if reported Cannabinoid quantity in Sample R104B for CCCCCc1cc(O)c2c(c1)OC(C)(C)[C@@H]1CC=C(C)C[C@@H]21 [Δ8-THC, Δ-8-tetrahydrocannabinol] is less than 1 mg/g
# output Yes
